Values from PubChem BioAssay AID246

Each record here notes measured T/C.
# Test system: BDF1 mice, P1081 chloroleukemia ip, survival T/C
# ASSAY_NOTES: NCI In Vivo Anticancer Drug Screen. Data for tumor model P1081 Chloroleukemia (intraperitoneal) in B6D2F1 (BDF1) mice
# MEASUREMENT_SETUP: endpoint: mean survival time; dose: 125.0 mg/kg/injection; schedule: Q01DX010 (ip); vehicle: saline; higher = longer survival
Toxic doses and inconclusive results are not listed.

[[record]]
compound = "OCC1OC(n2cnc3c(Cl)ncnc32)C(O)C1O (stereo not given)"
experimental_target = "BDF1 mice, P1081 chloroleukemia ip, survival T/C"
reading = "90 % of control"

[[record]]
compound = "c1ccc(CCSc2ncnc3nc[nH]c23)cc1"
experimental_target = "BDF1 mice, P1081 chloroleukemia ip, survival T/C"
reading = "120 % of control"


// T/C lookup, key: "Nc1c(Br)cc2c(c1Br)Cc1cc([N+](=O)[O-])ccc1-2"
100 % of control

Entry to check: "CCn1cnc2c(=S)nc[nH]c21"
115 % of control

Entry to check: "O=c1cn[nH]c(=O)[nH]1"
95 % of control

====

Each record here notes measured T/C.
# System: BDF1 mice, P1081 chloroleukemia ip, survival T/C
# ASSAY_NOTES: NCI In Vivo Anticancer Drug Screen. Data for tumor model P1081 Chloroleukemia (intraperitoneal) in B6D2F1 (BDF1) mice
# MEASUREMENT_SETUP: endpoint: mean survival time; dose: 500.0 mg/kg/injection; schedule: Q01DX Z (ip); vehicle: carboxymethylcellulose (CMC); higher = longer survival
Toxic doses and inconclusive results are not listed.

Request: T/C, test system BDF1 mice, P1081 chloroleukemia ip, survival T/C, entry "O=c1cn[nH]c(=O)[nH]1"
117 % of control

Entry to check: "O=CN(O)CC(=O)O"
101 % of control

Entry to check: OCC1OC(n2cnc3c(=S)nc[nH]c32)C(O)C1O (centres undefined)
94 % of control

Entry to check: O=c1[nH]c(=O)n(C2CC(O)C(CO)O2)cc1I (centres undefined)
114 % of control

====

# System: BDF1 mice, P1081 chloroleukemia ip, survival T/C
# ASSAY_NOTES: NCI In Vivo Anticancer Drug Screen. Data for tumor model P1081 Chloroleukemia (intraperitoneal) in B6D2F1 (BDF1) mice
# MEASUREMENT_SETUP: endpoint: mean survival time; dose: 5.0 mg/kg/injection; schedule: Q01DX Z (ip); vehicle: carboxymethylcellulose (CMC); higher = longer survival
Inconclusive results and toxic doses are left out.
RECORDED_ENDPOINT: T/C

[[record]]
molecule = "Nc1nc(=S)c2ncn(C3OC(CO)C(O)C3O)c2[nH]1 (stereo not given)"
reading = "95 % of control"


// T/C lookup, key: NC(Cc1ccc(N(CCCl)CCCl)cc1)C(=O)O (stereo not given)
189 % of control

Entry to check: COC12C(COC(N)=O)C3=C(C(=O)C(C)=C(N)C3=O)N1CC1C2N1C (stereo not given)
152 % of control

Entry to check: CC1CCOS(=O)O1 (stereo not given)
115 % of control

Entry to check: "CCN(CC)c1ccc2cc3ccc(=[N+](CC)CC)cc-3oc2c1"
96 % of control

====

# Tested on: BDF1 mice, P1081 chloroleukemia ip, survival T/C
# ASSAY_NOTES: NCI In Vivo Anticancer Drug Screen. Data for tumor model P1081 Chloroleukemia (intraperitoneal) in B6D2F1 (BDF1) mice
# MEASUREMENT_SETUP: endpoint: mean survival time; dose: 40.0 mg/kg/injection; schedule: Q01DX010 (ip); vehicle: saline; higher = longer survival
Toxic doses and inconclusive results are not listed.
RECORDED_ENDPOINT: T/C

[[record]]
compound = "Cc1cc(N(CCCl)CCCl)ccc1N=Nc1ccccc1C(=O)O"
experimental_target = "BDF1 mice, P1081 chloroleukemia ip, survival T/C"
reading = "110 % of control"


Request: T/C, test system BDF1 mice, P1081 chloroleukemia ip, survival T/C, entry "C[C@@H]1C[C@@H]([C@H](O)CC2CC(=O)NC(=O)C2)C(=O)[C@@H](C)C1"
90 % of control

Entry to check: CC1CCOS(=O)O1 (centres undefined)
95 % of control

Entry to check: "N=C(N)SCc1c2ccccc2c(CSC(=N)N)c2ccccc12"
122 % of control

====

# System: BDF1 mice, P1081 chloroleukemia ip, survival T/C
# ASSAY_NOTES: NCI In Vivo Anticancer Drug Screen. Data for tumor model P1081 Chloroleukemia (intraperitoneal) in B6D2F1 (BDF1) mice
# MEASUREMENT_SETUP: endpoint: mean survival time; dose: 0.25 mg/kg/injection; schedule: Q01DX Z (ip); vehicle: carboxymethylcellulose (CMC)
Inconclusive results and toxic doses are left out. Rule for the calls: active = survival T/C of 150% or more; inactive = T/C below 125% in these data.
Bench note: report the call from true = active, false = inactive

Illustrative cases are given below, each with its answer.
[[record]]
compound = "Cn1cnc([N+](=O)[O-])c1Sc1nc(N)nc2nc[nH]c12"
cat = "false"

[[record]]
compound = "NC(=O)c1cn(C2OC(CO)C(O)C2O)c2ncnc(N)c12 (stereo not given)"
cat = "false"

[[record]]
compound = "O[C@H](CN1CC1)[C@@H](O)CN1CC1"
cat = "true"


Just curious, what result did "Nc1nc(=S)c2[nH]cnc2[nH]1" get here?
true

Entry to check: N#Cc1cn(C2OC(CO)C(O)C2O)c2ncnc(N)c12 (stereo not given)
false

====

# Tested on: BDF1 mice, P1081 chloroleukemia ip, survival T/C
# ASSAY_NOTES: NCI In Vivo Anticancer Drug Screen. Data for tumor model P1081 Chloroleukemia (intraperitoneal) in B6D2F1 (BDF1) mice
# MEASUREMENT_SETUP: endpoint: mean survival time; dose: 12.5 mg/kg/injection; schedule: Q01DX Z (ip); vehicle: carboxymethylcellulose (CMC); higher = longer survival
Toxic doses and inconclusive results are not listed.
RECORDED_ENDPOINT: T/C

[[record]]
compound = "CSc1ncnc2nc[nH]c12"
experimental_target = "BDF1 mice, P1081 chloroleukemia ip, survival T/C"
reading = "100 % of control"


// T/C lookup, key: O=c1[nH]c(=O)n(C2CC(O)C(CO)O2)cc1F (stereo not drawn)
122 % of control

Entry to check: "CN(C)c1ccc(/C=C/c2ccnc3ccccc23)cc1"
115 % of control

Entry to check: "CCCCn1cnc2c(=S)nc[nH]c21"
105 % of control

Entry to check: "CC(=O)Nc1ccc2nc3ccc(NC(C)=O)cc3[n+](-c3ccccc3)c2c1"
103 % of control

====

# Tested on: BDF1 mice, P1081 chloroleukemia ip, survival T/C
# ASSAY_NOTES: NCI In Vivo Anticancer Drug Screen. Data for tumor model P1081 Chloroleukemia (intraperitoneal) in B6D2F1 (BDF1) mice
# MEASUREMENT_SETUP: endpoint: mean survival time; dose: 16.0 mg/kg/injection; schedule: Q01DX Z (ip); vehicle: carboxymethylcellulose (CMC); higher = longer survival
Toxic doses and inconclusive results are not listed.
Each record here notes measured T/C.

Worked cases, T/C given:
[[record]]
molecule = "O=c1[nH]c(=O)n(C2CC(O)C(CO)O2)cc1Br (centres undefined)"
reading = "86 % of control"

[[record]]
molecule = "CN(C)c1nc(N(C)C)nc(N(C)C)n1"
reading = "95 % of control"

[[record]]
molecule = "CCCCNc1ncnc2c1cnn2C"
reading = "101 % of control"


# context switch: different molecule, same T/C
// T/C lookup, key: "NC(=O)N(CCCl)N=O"
108 % of control

====

# System: BDF1 mice, P1081 chloroleukemia ip, survival T/C
# ASSAY_NOTES: NCI In Vivo Anticancer Drug Screen. Data for tumor model P1081 Chloroleukemia (intraperitoneal) in B6D2F1 (BDF1) mice
# MEASUREMENT_SETUP: endpoint: mean survival time; dose: 62.5 mg/kg/injection; schedule: Q01DX010 (ip); vehicle: saline; higher = longer survival
Inconclusive results and toxic doses are left out.
Each record here notes measured T/C.

Worked cases, T/C given:
[[record]]
compound = "O=c1cn[nH]c(=O)[nH]1"
experimental_target = "BDF1 mice, P1081 chloroleukemia ip, survival T/C"
recorded_endpoint = "T/C"
reading = "95 % of control"

[[record]]
compound = "OCC1OC(n2cnc3c(Cl)ncnc32)C(O)C1O (centres undefined)"
experimental_target = "BDF1 mice, P1081 chloroleukemia ip, survival T/C"
recorded_endpoint = "T/C"
reading = "95 % of control"

[[record]]
compound = "c1ccc(CCSc2ncnc3nc[nH]c23)cc1"
experimental_target = "BDF1 mice, P1081 chloroleukemia ip, survival T/C"
recorded_endpoint = "T/C"
reading = "120 % of control"


// T/C lookup, key: "CC(=O)N(C)C"
100 % of control

====

# Test system: BDF1 mice, P1081 chloroleukemia ip, survival T/C
# ASSAY_NOTES: NCI In Vivo Anticancer Drug Screen. Data for tumor model P1081 Chloroleukemia (intraperitoneal) in B6D2F1 (BDF1) mice
# MEASUREMENT_SETUP: endpoint: mean survival time; dose: 1.0 mg/kg/injection; schedule: Q01DX Z (ip); vehicle: saline; higher = longer survival
# Procedure: The antitumor activity of compounds was measured in mice bearing transplantable tumors. Survival or tumor size were measured and the results are expressed as the measurement made in the treated group (T) divided by the measurement made in the vehicle treated control group (C). The tumor model used in this assay is P1081 Chloroleukemia (intraperitoneal) in B6D2F1 (BDF1) mice
Toxic doses and inconclusive results are not listed.
RECORDED_ENDPOINT: T/C

Worked cases, T/C given:
[[record]]
molecule = "O=NN(CCCl)C(=O)NCCCl"
recorded_endpoint = "T/C"
reading = "95 % of control"

[[record]]
molecule = "C[C@]12CC[C@H](OC3OC(CO)C(O)C(O)C3O)C[C@H]1CC[C@@H]1[C@@H]2CC[C@]2(C)[C@@H](C3=CCOC3=O)CC[C@]12O (some centres undefined)"
recorded_endpoint = "T/C"
reading = "96 % of control"

[[record]]
molecule = "C1CN1c1nc(N2CC2)nc(N2CC2)n1"
recorded_endpoint = "T/C"
reading = "102 % of control"


# context switch: different molecule, same T/C
// T/C lookup, key: CSCS(=O)C[C@H](CO)NC(=O)/C=C/c1c(C)[nH]c(=O)[nH]c1=O (some centres undefined)
90 % of control
